Just for reference, patent US20110224226A1 is where these values come from.

- Assay Name: Example 1 single dose study: pharmacokinetics
- Format: in vivo, human
- Settings: both sexes, human, serum; single oral dose 20 mg, healthy volunteers, final mean
Recorded Endpoint: AUC(0-inf) (ng·h/mL)
Answers are plain numbers, in ng·h/mL.

Consider the compound O=C(Nc1nc(-c2cc(Cl)cs2)c(N2CCN(C3CCCCC3)CC2)s1)c1cnc(N2CCC(C(=O)O)CC2)c(Cl)c1 and give its measured AUC(0-inf). 4440

====

- Assay Name: Example 1 single dose study: pharmacokinetics
- Type: in vivo, human
- Settings: both sexes, human, plasma, po, 100 mg, single oral dose 100 mg, healthy volunteers, preliminary mean; read-out: T½ (converted)
Recorded Endpoint: half-life (h)
One number for each entry, in h.

Consider the molecule O=C(Nc1nc(-c2cc(Cl)cs2)c(N2CCN(C3CCCCC3)CC2)s1)c1cnc(N2CCC(C(=O)O)CC2)c(Cl)c1 [Formula I] and give its measured half-life. 15.8
